Source listed as patent US20250154145A1.

# Tested on: neutrophils
# protocol.description: Neutrophil calcium flux assay (5-OXO-ETE-stimulated, Indo-1 fluorescence)
# Type: cell-based
# run.parameters: Neutrophil, 5-OXO-ETE-stimulated calcium flux

{"columns": ["compound", "IC50"],
 "data": [
  ["C[C@H](CC(=O)O)CC(=O)c1c(CCCCCOc2cccc(Cl)c2)n(C)c2ccc(Cl)cc12", "< 100 nM"],
  ["C[C@H](CC(=O)O)NC(=O)c1c(CCCCCCc2cccc(Cl)c2)n(C)c2ccc(Cl)cc12", "> 300 nM"],
  ["CC(CC(=O)O)CC(=O)c1c(CCCCOCc2cccc(C#N)c2)n(C)c2cccnc12 (stereo not shown)", "> 300 nM"],
  ["Cn1c(CCCCOCc2cccc(Cl)c2)c(C(=O)N2CC[C@H](C(=O)O)C2)c2cnccc21", "> 300 nM"]
]}
